GI50 listing for selected compounds.
- Tested on: MDA-N
- protocol-description: NCI tumour cell line growth inhibition, 48 h
Active and inactive are the calls of the source. No stated cut-off is given here; in the data, active = GI50 up to about 1.1 µM and inactive = higher.

compound	GI50
Oc1cccc2cc(Br)cnc12	21.7 µM (inactive)
CC(C)=CC(=O)O[C@@H]1CC(C)(C)CC2C3=CCC4[C@]56CC[C@](O)(OC5)C(C)(C)C6CC[C@@]4(C)C3(C)CC[C@]21C(=O)O (some centres not stated)	> 100 µM (inactive)
NN/C(=N\S(=O)(=O)c1cc(S(=O)(=O)c2ccccc2)cs1)Nc1ccc(Cl)cc1	20.5 µM (inactive)
N#Cc1c(N2CCOCC2)ncn(-c2ccccc2)c1=O	> 100 µM (inactive)
COc1cc2c3c(c1O)C1(C=CC(=O)C=C1)CC3N(C)CC2 (configuration not stated)	10.7 µM (inactive)
COc1cc(/C=C2/CCS(=O)(=O)c3ccc(C)cc3C2=O)cc(OC)c1OC	4.29 µM (inactive)
N=C(N)NCCCC(NC(=O)OCCCCn1ccc(N)nc1=O)C(=O)O (configuration not stated)	> 100 µM (inactive)
CC1(C)CCOC(=O)C(Cl)CC1Cl (configuration not stated)	> 100 µM (inactive)
CCOC(=O)C(CC#Cc1ccc(C#CCC(NC(C)=O)C(=O)OCC)cc1)NC(C)=O (configuration not stated)	> 100 µM (inactive)
C/C(=N\NC(N)=S)c1cccs1.OB(O)c1ccccc1	> 100 µM (inactive)

*Q* What GI50 value was documented for this compound, Cc1nnc2cc(C(=O)O)c3ccccc3n2c1=O ?
*A* > 10 µM (inactive)

*Q* Endpoint output: GI50 of c1ccc(Cc2nc(Cc3n[nH]c(Cc4ccccc4)n3)n[nH]2)cc1 . Value?
*A* > 100 µM (inactive)

*Q* For Cc1cccc(/C(Br)=C2/OC(=O)c3ccccc32)c1 , what is its reported GI50?
*A* > 100 µM (inactive)

*Q* # lookup: GI50 of c1ccc(CC(Nc2cccnc2)c2ccccc2)cc1 (configuration not stated)
*A* 20.1 µM (inactive)

*Q* Which measured GI50 value corresponds to COC(=O)c1c(C)cccc1/C=C1\Cc2ccc(C)c(C)c2C1=O ?
*A* > 100 µM (inactive)

*Q* For the compound COc1cc2c(cc1OC)C1c3ccccc3CCN1CC2 (configuration not stated) , what GI50 is on record?
*A* 41.1 µM (inactive)

*Q* Quick one: GI50 of CCN(CC)CCCNc1ccc([N+](=O)[O-])c2nc3ccccc3c(N)c12 ?
*A* 0.492 µM (active)
